# assay text: qHTS for Inhibitors of the Functional Ribonucleoprotein Complex (vRNP) of Lassa (LASV) Arenavirus: LASV Primary Screen - GLuc reporter signal (AID 1347082); also: nearly all actives have a fitted effect of over 60% in size
# measurement context: LASV minigenome vRNP, Gaussia luciferase reporter; series mostly up to 57.5 µM
Results filed as inconclusive are left out. Activity calls are given as the source filed them. Calls follow the shape of the full dose curve; tested in HEK293 reporter line.
I would appreciate it if you answered using one of these outcomes: 1.0 = active, 0.0 = inactive

Worked set:
{"columns": ["compound", "label value"],
 "data": [
  ["CCC(COC(=O)c1cc(OC)c(OC)c(OC)c1)(c1ccccc1)N(C)C (centres undefined)", 0.0],
  ["CCCN1CCC[C@@H]2Cc3[nH]ncc3C[C@H]21", 0.0],
  ["COc1cc2c(c(OC)c1OC)-c1ccc(OC)c(=O)cc1[C@@H](NC(C)=O)CC2", 0.0],
  ["CCOC(=O)c1ncn2c1CN(C)C(=O)c1cc(F)ccc1-2", 0.0],
  ["O=C1CCc2ccc(OCCCCN3CCN(c4cccc(Cl)c4Cl)CC3)cc2N1", 0.0],
  ["CC(C)C[C@H](NC(=O)[C@H](CCc1ccccc1)NC(=O)CN1CCOCC1)C(=O)N[C@@H](Cc1ccccc1)C(=O)N[C@@H](CC(C)C)C(=O)[C@@]1(C)CO1", 1.0]
]}

**Query** Tell me the assay call for COc1cc2c(cc1OC)C(=O)C(CC1CCN(Cc3ccccc3)CC1)C2 (centres undefined) please.
**Result** 0.0

**Query** State the result this test recorded for "CCC(=O)O[C@H]1[C@H](O[C@@H]2[C@@H](C)[C@H](O[C@H]3C[C@@](C)(OC)[C@@H](O)[C@H](C)O3)[C@@H](C)C(=O)O[C@H](CC)[C@@](C)(O)[C@H](O)[C@@H](C)C(=O)[C@H](C)C[C@@]2(C)O)O[C@H](C)C[C@@H]1N(C)C" .
**Result** 0.0

**Query** Assay outcome for "O=C1NC(=O)C(c2ccccc2)(c2ccccc2)N1" : what was it?
**Result** 0.0

**Query** // param item: "CC(C)C(=O)Nc1ccc([N+](=O)[O-])c(C(F)(F)F)c1" ; yields the recorded call
**Result** 0.0

**Query** Outcome? "Nc1[nH]c(=O)ncc1F"
**Result** 0.0

**Query** Tell me the recorded outcome of this test for "CNS(=O)(=O)CCc1ccc2[nH]cc(C3CCN(C)CC3)c2c1" .
**Result** 0.0

**Query** Recorded call for "CC1=C(C(=O)O)N2C(=O)[C@@H](NC(=O)[C@H](N)c3ccc(O)cc3)[C@H]2SC1" ?
**Result** 0.0

**Query** # lookup: test call for "Cc1c(O)cccc1C(=O)N[C@@H](CSc1ccccc1)[C@H](O)CN1C[C@H]2CCCC[C@H]2C[C@H]1C(=O)NC(C)(C)C"
**Result** 0.0

**Query** Just curious, what result did "CCN(CC)CCNC(=O)c1cc(Cl)c(N)cc1OC" get here?
**Result** 0.0

**Query** Per the assay record, what outcome was assigned to "CN/C(=C\[N+](=O)[O-])NCCSCc1ccc(CN(C)C)o1" ?
**Result** 0.0

**Query** For CCCNCC(O)COc1ccccc1C(=O)CCc1ccccc1 (centres undefined) , what call appears in the results of this test?
**Result** 0.0

**Query** Tell me the assay call for C[N+]1(C)CCC(OC(=O)C(O)(c2ccccc2)C2CCCC2)C1 (centres undefined) please.
**Result** 0.0

**Query** State the result this test recorded for "Cn1cc(C2=C(c3cn(C4CCN(Cc5ccccn5)CC4)c4ccccc34)C(=O)NC2=O)c2ccccc21" .
**Result** 0.0

Just for reference, PubChem BioAssay (NCATS) is where these values come from.
